What Redroot pigweed plant response rating was measured for each of the following?
# Tested on: pigweed
# run-description: Test B pre/postemergence pigweed
# Type: in vivo, Amaranthus retroflexus
# reported-conditions: Preemergence, Rate 250 g/ha; scale 0 to 10, 0 is no effect, 10 is complete control
# Procedure: […] At the same time, these crop and weed species were also treated with postemergence applications of test chemicals formulated in the same manner. […] Treated plants and controls were maintained in a greenhouse for twelve to sixteen days, after which all species were compared to controls and visually evaluated. […]
Reply briefly: the number, and no unit.

Challenge: Report Redroot pigweed plant response rating for C=C[Si](C)(C)Cn1c(=O)on(C(=O)N(c2ccc(Cl)cc2)C(C)C)c1=O tested on pigweed.
Response given: 3

Challenge: What do you get for CC1CC1Cn1c(=O)on(C(=O)N(c2ccc(F)cc2)C(C)C)c1=O (centres unmarked) ?
Response given: 4

Challenge: What do you get for Cc1nc(C)c(-n2c(=O)on(C(=O)N(c3ccc(Cl)cc3)C(C)C)c2=O)s1 ?
Response given: 0

Challenge: What do you get for Cc1ccc(N(C(=O)n2oc(=O)n(C(C)C)c2=O)C(C)C)cc1 ?
Response given: 7

Challenge: What do you get for CC(C)N(C(=O)n1oc(=O)n(C(C)(C)C)c1=O)c1ccccc1 ?
Response given: 2

Challenge: What do you get for C=CCn1c(=O)on(C(=O)N(c2ccc(F)cc2)C(C)C)c1=O ?
Response given: 10

Challenge: What do you get for CC(C)N(C(=O)n1oc(=O)n(N(C)c2ccccc2)c1=O)c1ccc(F)cc1 ?
Response given: 0

Challenge: What do you get for CCOP(=O)(OCC)C(C)n1c(=O)on(C(=O)N(c2ccccc2)C(C)C)c1=O (centres unmarked) ?
Response given: 0

* * *

# Test system: pigweed
# run-description: Test B pre/postemergence pigweed
# Type: in vivo, Amaranthus retroflexus
# reported-conditions: Rate 125 g/ha, Postemergence; scale 0 to 10
What Redroot pigweed plant response rating was measured for each of the following?

Challenge: If you can, please state the reported Redroot pigweed plant response rating value of CC(C)N(C(=O)n1oc(=O)n(C2CCCC(C(F)(F)F)C2)c1=O)c1ccc(F)cc1 (stereo not drawn) .
Response given: 4

Challenge: What do you get for CCN(C(=O)n1oc(=O)n(N(C)c2ccccc2)c1=O)C1CCCCC1 ?
Response given: 0

Challenge: What do you get for COc1nc(OC)nc(N(C(=O)n2oc(=O)n(-c3c(C)cccc3C)c2=O)C(C)C)n1 ?
Response given: 0

Challenge: What do you get for Cc1nc(C)c(-n2c(=O)on(C(=O)N(c3ccccc3)C(C)C)c2=O)s1 ?
Response given: 0

Challenge: What do you get for CCN(C(=O)n1oc(=O)n(C)c1=O)C1CCCCC1 ?
Response given: 0

Challenge: What do you get for CCN(C(=O)n1oc(=O)n(C(C)C)c1=O)c1nncs1 ?
Response given: 0

* * *

What Plant response rating, Crabgrass was measured for each of the following?
# Test system: crabgrass
# run-description: Test B pre/postemergence crabgrass
# Format: in vivo, Digitaria sanguinalis
# reported-conditions: Postemergence, Rate 250 g/ha; scale 0 to 10, 0 is no effect, 10 is complete control

Challenge: If you can, please state the reported Plant response rating, Crabgrass value of Cc1nc(Cl)sc1C(C)n1c(=O)on(C(=O)N(c2ccccc2)C(C)C)c1=O (centres unmarked) .
Response given: 1

Challenge: What do you get for CC(C)N(C(=O)n1oc(=O)n(C2(C)CC2)c1=O)c1ccc(F)cc1 ?
Response given: 6

Challenge: What do you get for CC(C)N(C(=O)n1oc(=O)n(C(CF)CF)c1=O)c1ccccc1 ?
Response given: 8

Challenge: What do you get for C=C(C)CCn1c(=O)on(C(=O)N(c2ccccc2)C(C)C)c1=O ?
Response given: 3

Challenge: What do you get for CC(C)N(C(=O)n1oc(=O)n(CCC(F)(F)F)c1=O)c1ccc(F)cc1 ?
Response given: 9

* * *

What Plant response rating, Velvetleaf was measured for each of the following?
# System: velvetleaf
# run-description: Test B pre/postemergence velvetleaf
# Format: in vivo, Abutilon theophrasti
# reported-conditions: Postemergence, Rate 500 g/ha; scale of 0 to 10 where 0 is no effect and 10 is complete control

Challenge: If you can, please state the reported Plant response rating, Velvetleaf value of CCCCCCn1c(=O)on(C(=O)N(c2ccccc2)C(C)C)c1=O .
Response given: 2

Challenge: What do you get for CC(C)N(C(=O)n1oc(=O)n(COCc2ccccc2)c1=O)c1ccccc1 ?
Response given: 0

Challenge: What do you get for COCCOCn1c(=O)on(C(=O)N(c2ccccc2)C(C)C)c1=O ?
Response given: 3

Challenge: What do you get for C=CCn1c(=O)on(C(=O)N(c2c(C)cccc2C)C(C)COC)c1=O (stereo not shown) ?
Response given: 0

* * *

# Tested on: rape
# run-description: Test B pre/postemergence rape
# Assay type: in vivo, Brassica napus
# reported-conditions: Postemergence, Rate 1000 g/ha; scale 0 to 10 (0 no effect, 10 complete control)
measured-endpoint: Rape plant response rating
Reply briefly: the number, and no unit.

Challenge: Report Rape plant response rating for CC(C)N(C(=O)n1oc(=O)n(N(C)c2ccccc2)c1=O)c1ccc(F)cc1 tested on rape.
Response given: 0

Challenge: What do you get for CCOP(=O)(Cn1c(=O)on(C(=O)N(c2ccc(F)cc2)C(C)C)c1=O)OCC ?
Response given: 0

Challenge: What do you get for CCOP(=O)(Cn1c(=O)on(C(=O)N(c2ccc(F)cc2F)C(C)C)c1=O)OCC ?
Response given: 0

Challenge: What do you get for CCOC(=O)CC(C(=O)OCC)n1c(=O)on(C(=O)N(c2ccc(Cl)cc2)C(C)C)c1=O (centres unmarked) ?
Response given: 0

Challenge: What do you get for CCOP(=O)(OCC)C(C)n1c(=O)on(C(=O)N(c2ccccc2)C(C)C)c1=O (centres unmarked) ?
Response given: 0

* * *

# Tested on: surinam grass
# run-description: Test B pre/postemergence surinam grass
# Type: in vivo, Brachiaria decumbens
# reported-conditions: Rate 250 g/ha, Postemergence; scale of 0 to 10 where 0 is no effect and 10 is complete control
# Method: […] At the same time, these crop and weed species were also treated with postemergence applications of test chemicals formulated in the same manner. […] Treated plants and controls were maintained in a greenhouse for twelve to sixteen days, after which all species were compared to controls and visually evaluated. […]
measured-endpoint: Plant response rating, B. signalgrass
Reply briefly: the number, and no unit.

Challenge: If you can, please state the reported Plant response rating, B. signalgrass value of COCn1c(=O)on(C(=O)N(c2ccccc2)C(C)C)c1=O [Compound 562] .
Response given: 5

Challenge: What do you get for CCCCn1c(=O)on(C(=O)N(c2ccccc2)C(C)C)c1=O [Compound 556] ?
Response given: 4

Challenge: What do you get for CCN(C(=O)n1oc(=O)n(N(C)C)c1=O)C1CCCCC1 [Compound 274] ?
Response given: 0

Challenge: What do you get for COC(=O)CCCn1c(=O)on(C(=O)N(c2ccc(Cl)cc2)C(C)C)c1=O [Compound 543] ?
Response given: 3

Challenge: What do you get for CC(C)N(C(=O)n1oc(=O)n(CC(C)(C)C)c1=O)c1ccccc1 [Compound 276] ?
Response given: 0

Challenge: What do you get for CCc1cccc(CC)c1-n1c(=O)on(C(=O)N(c2ccccc2)C(C)C)c1=O [Compound 305] ?
Response given: 0

* * *

# Tested on: purple nutsedge
# run-description: Test B pre/postemergence purple nutsedge
# Type: in vivo, Cyperus rotundus
# reported-conditions: Rate 500 g/ha, Postemergence; scale 0 to 10
What Nutsedge plant response rating was measured for each of the following?
Reply briefly: the number, and no unit.

Challenge: If you can, please state the reported Nutsedge plant response rating value of COc1ccccc1Cn1c(=O)on(C(=O)N(c2ccc(F)cc2)C(C)C)c1=O .
Response given: 0

Challenge: What do you get for CC(C)N(C(=O)n1oc(=O)n(C)c1=O)c1ccc(Cl)cc1 ?
Response given: 4

Challenge: What do you get for COc1nc(OC)nc(N(C(=O)n2oc(=O)n(-c3c(C)cccc3C)c2=O)C(C)C)n1 ?
Response given: 0

Challenge: What do you get for CC(C)N(C(=O)n1oc(=O)n(CC2CO2)c1=O)c1ccc(F)cc1 (stereo not shown) ?
Response given: 0

* * *

# Test system: wheat
# run-description: Test B pre/postemergence wheat
# Format: in vivo, Triticum aestivum
# reported-conditions: Rate 125 g/ha, Postemergence; scale of 0 to 10 where 0 is no effect and 10 is complete control
What Wheat plant response rating was measured for each of the following?

Challenge: If you can, please state the reported Wheat plant response rating value of CCc1cccc(CC)c1-n1c(=O)on(C(=O)N(c2ccccc2)C(C)C)c1=O .
Response given: 0

Challenge: What do you get for CC(=O)OCn1c(=O)on(C(=O)N(c2ccc(F)cc2)C(C)C)c1=O ?
Response given: 0

Challenge: What do you get for CCOC(=O)C(C)N(C(=O)n1oc(=O)n(C(C)C)c1=O)c1ccc(F)cc1 (centres unmarked) ?
Response given: 0

Challenge: What do you get for CC(C)N(C(=O)n1oc(=O)n(C2CC2)c1=O)c1ccc(F)cc1F ?
Response given: 3

Challenge: What do you get for CCN(C(=O)n1oc(=O)n(N(C)C)c1=O)C1CCCCC1 ?
Response given: 0

Origin of values: patent US6737383B1
